Test system: proteasome
Assay Protocol: Proteasome processing, summarised over proteasome types (Table 5)
Type: biochemical
Measurement Parameters: 30 residue long precursor peptides
Recorded Metric: generation / processing by household and immunoproteasomes, in words

| Substance Smiles | Value |
| --- | --- |
| CC[C@H](C)[C@H](NC(=O)[C@H](CC(C)C)NC(=O)[C@H](Cc1c[nH]cn1)NC(=O)[C@H](CCC(N)=O)NC(=O)[C@@H]1CCCN1C(=O)[C@@H]1CCCN1C(=O)[C@H](C)NC(=O)[C@H](CC(C)C)NC(=O)CN)C(=O)N[C@@H](CCCNC(=N)N)C(=O)N[C@H](C(=O)O)C(C)C | efficiently generated |
| CC(C)[C@H](NC(=O)[C@H](CCCNC(=N)N)NC(=O)[C@@H](NC(=O)CNC(=O)[C@@H]1CCCN1C(=O)[C@@H]1CCCN1C(=O)[C@@H]1CCCN1C(=O)[C@@H](NC(=O)[C@@H](N)CO)[C@@H](C)O)[C@@H](C)O)C(=O)O | efficiently generated |

All figures here come from patent US8663646B2.
